# Test system: P. vulgatus WT;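 also: active when median AUC fell below 0.1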
# assayName: growth AUC normalised to DMSO control (median) (fraction of control); higher = less growth inhibition, active = hit call of the paper
# settings: 20 µM
Returns 1 if the recorded growth AUC normalised to DMSO control is greater than or equal to 1, and -1 otherwise.

Input line: I'd appreciate it if you could say whether C[C@@H]1C[C@H]2[C@@H]3CCC4=CC(=O)C=C[C@]4(C)[C@@]3(Cl)[C@@H](O)C[C@]2(C)[C@@]1(OC(=O)c1ccco1)C(=O)CCl [Mometasone furoate] has growth AUC normalised to DMSO control at least equal to 1.
Output line: 1

Input line: Evaluate CN(Cc1cnc2nc(N)nc(N)c2n1)c1ccc(C(=O)N[C@@H](CCC(=O)O)C(=O)O)cc1 : growth AUC normalised to DMSO control at minimum 1?
Output line: -1

Input line: Dear colleague, could you confirm whether O=c1[nH]c(=O)n([C@H]2C[C@H](O)[C@@H](CO)O2)cc1I has growth AUC normalised to DMSO control at or above 1?
Output line: 1

Input line: Dear colleague, could you confirm whether CC(C)(C)CC(C)(C)c1ccc(O)c(Cc2ccc(Cl)cc2Cl)c1 has growth AUC normalised to DMSO control at or above 1?
Output line: -1

Input line: Hi, just wondering whether C#CCN[C@@H]1CCc2ccccc21 shows growth AUC normalised to DMSO control of 1 or higher.
Output line: -1

Input line: Does O=C(C1CCCCC1)N1CC(=O)N2CCc3ccccc3C2C1 (configuration not stated) have a reported growth AUC normalised to DMSO control of at least 1?
Output line: 1
